test: Acute toxicity (LD50), intravenous, mice; conditions: mouse, in vivo, dd-stain male mice, 7 weeks old, Behrens-Karber method, read-out: median lethal dose (LD50)
# LD50 per record follows

compound	output_unit	LD50
COC(=O)CCCCCCn1ccnc1 [N-(6-methoxycarbonylhexyl)imidazole, reference compound]	mg/kg	140
O=C(O)CCCCCCCn1ccnc1	mg/kg	560

----------
target: thromboxane synthetase (Oryctolagus cuniculus, UniProt G1TAZ9); construct: from tissue; host or cells: rabbit platelets (microsomes); assay: Inhibitory potency of imidazole compounds on thromboxane synthetase (conversion of prostaglandin H2 to thromboxane B2 by rabbit platelet microsomes); format: biochemical; conditions: 0.5 μM, 24° C., 1 minute
Sequence (G1TAZ9 1-530): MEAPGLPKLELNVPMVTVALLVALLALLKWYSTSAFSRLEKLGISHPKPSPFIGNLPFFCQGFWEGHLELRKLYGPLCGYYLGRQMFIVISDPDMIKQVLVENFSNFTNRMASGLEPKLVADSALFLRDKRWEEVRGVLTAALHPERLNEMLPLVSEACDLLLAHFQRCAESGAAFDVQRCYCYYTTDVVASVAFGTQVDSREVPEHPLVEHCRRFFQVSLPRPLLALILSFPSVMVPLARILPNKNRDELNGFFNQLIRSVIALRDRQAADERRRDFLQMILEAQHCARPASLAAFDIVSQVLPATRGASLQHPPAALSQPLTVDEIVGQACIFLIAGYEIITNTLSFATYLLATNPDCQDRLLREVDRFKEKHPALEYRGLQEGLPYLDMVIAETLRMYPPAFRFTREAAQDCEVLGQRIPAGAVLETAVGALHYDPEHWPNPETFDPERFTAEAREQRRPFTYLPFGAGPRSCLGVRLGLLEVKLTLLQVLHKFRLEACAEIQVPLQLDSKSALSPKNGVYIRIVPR
Where a name gives a salt, the structure may show the parent alone.
# inhibition at 0.5 µM per record follows
property_measured: inhibition at 0.5 µM (%)

compound	value
COC(=O)CCCCCCn1ccnc1 [N-(6-methoxycarbonylhexyl)imidazole, reference compound]	25.7
O=C(O)CCCCCCCCCCCn1ccnc1 [hydrochloride]	46.8
O=C(O)CCCCCCCn1ccnc1 [Hydrochloride]	89
O=C(O)CCCCCCCCCn1ccnc1 [hydrochloride]	72.5
O=C(O)CCCCCCCCn1ccnc1 [hydrochloride]	90.8
O=C(O)CCCCCCn1ccnc1 [hydrochloride]	76.1
O=C(O)CCCCCCCCCCn1ccnc1 [hydrochloride]	40.4
